In this section we review reported TGI values for a set of compounds.
Test system: 786-0 renal
Assay procedure: NCI tumour cell line growth inhibition, 48 h
Outcome measure: TGI

>>> value("[O-][n+]1c2cc(CN3CCOCC3)c(CN3CCOCC3)cc2[n+]([O-])c2c(O)cccc21")
"6.03 µM"
>>> value("O=CN1N=C(c2ccc(Nc3ccnc4cc(Cl)ccc34)cc2)CC1c1ccc(Cl)cc1 (stereo not given)")
"> 100 µM"
>>> value("Cn1c(=O)sc2cc(C(=S)N3CCN(c4ccccc4)CC3)ccc21")
"> 100 µM"
>>> value("CCSC12CC3c4cccc5c4C(CN5C(=O)c4ccccc4)CC3(O1)N(C)C2=O (stereo not given)")
"> 100 µM"
>>> value("COc1ccc(CN=C(N)N=C(N)N)cc1OC")
"> 1000 µM"
>>> value("O=c1[nH]c2c(c3ccccc13)CCc1ccccc1-2")
"> 100 µM"
>>> value("OC1c2ccccc2C2C(O)c3ccccc3C12 (stereo not given)")
"> 100 µM"
>>> value("OC1(c2ccc3ccccc3c2)c2c(c3ccccc3c3ccccc23)C2=NCCN21 (stereo not given)")
"25.3 µM"
>>> value("COC(=O)c1nc(N)nc(C(=O)OC)c1C(=O)c1ccccc1")
"> 100 µM"
>>> value("O=C(NC1C=Nc2ccccc2NC1=O)c1ccccc1Cl (stereo not given)")
"> 100 µM"
